FYI, the data here is from paper PMC4912218.

experiment: in vivo; conditions: Gammarus pulex, in vivo
Where a name gives a salt, the structure may show the parent alone.
MEASURED_PARAMETER: LC50 at 24 h

Solved cases below.
COc1ccc2c(c1)c(CC(=O)O)c(C)n2C(=O)c1ccc(Cl)cc1 [Indomethacin] = > 0.93 µg/mL
CC(C(=O)O)c1ccc(-c2ccccc2)c(F)c1 (stereo not shown) [Flurbiprofen] = > 8 µg/mL
CNC(=C[N+](=O)[O-])NCCSCc1ccc(CN(C)C)o1 [Ranitidine] = > 250 µg/mL

The molecule COCCc1ccc(OCC(O)CNC(C)C)cc1 (stereo not shown) [Metoprolol tartrate] showed LC50 at 24 h equal to > 150 µg/mL

###

assay: in vivo; conditions: in vivo
MEASURED_PARAMETER: LC50 at 24 h

# annotated cases, reported LC50 at 24 h shown
CC(C)Cc1ccc(C(C)C(=O)O)cc1 (stereo not drawn) = 44 µg/mL
CC(=O)CC(c1ccccc1)c1c(O)c2ccccc2oc1=O (stereo not drawn) = > 17 µg/mL

# molecule CC(C)(Oc1ccc(Cl)cc1)C(=O)O ; its LC50 at 24 h = > 250 µg/mL
